- procedure text: Chemical stability in aqueous buffer at PH 7.3 by spontaneous hydrolysis
- Format: physicochemical
endpoint label: half-life (h)

- structure smiles: "Cc1ccccc1C(=O)n1cc(Br)cn1"
  unit abbreviation: "h"
  measured result: 6.2
- structure smiles: "Cc1ccc(C(=O)n2cc(Br)cn2)cc1"
  unit abbreviation: "h"
  measured result: 2.1
- structure smiles: "O=C(c1ccccc1)n1ccc([N+](=O)[O-])n1"
  unit abbreviation: "h"
  measured result: 0.033
- structure smiles: "CC(=O)Nc1ccc(C(=O)n2ccc(C)n2)cc1"
  unit abbreviation: "h"
  measured result: 10
- structure smiles: "Cc1cc(C)n(C(=O)c2ccc(C)c(Br)c2)n1"
  unit abbreviation: "h"
  measured result: 25.1
- structure smiles: "O=C(c1ccccc1)n1cc([N+](=O)[O-])cn1"
  unit abbreviation: "h"
  measured result: 0.04
- structure smiles: "O=C(c1ccccc1Cl)n1cc(Cl)cn1"
  unit abbreviation: "h"
  measured result: 3
- structure smiles: "Cc1ccccc1C(=O)n1cccn1"
  unit abbreviation: "h"
  measured result: 1.2

* * *

Below, each entry is listed with its recorded half-life.
- procedure text: Chemical stability in aqueous buffer at PH 7.3 by spontaneous hydrolysis
- Type: physicochemical

- structure smiles: "O=C(c1cccc([N+](=O)[O-])c1)n1cc(Cl)cn1"
  unit abbreviation: "h"
  half-life: 0.22
- structure smiles: "Cc1nn(C(=O)c2cccc(Br)c2)c(C)c1Br"
  unit abbreviation: "h"
  half-life: 3.1
- structure smiles: "Cc1ccc(C(=O)n2ccc([N+](=O)[O-])n2)cc1"
  unit abbreviation: "h"
  half-life: 0.1
- structure smiles: "CC(C)(C)c1ccc(C(=O)n2cc(Cl)cn2)cc1"
  unit abbreviation: "h"
  half-life: 2.2
- structure smiles: "Cc1ccc(C(=O)c2ccn(C(=O)c3ccc(F)cc3)n2)c(C)c1"
  unit abbreviation: "h"
  half-life: 0.21
- structure smiles: "Cc1ccccc1C(=O)n1cc(Cl)cn1"
  unit abbreviation: "h"
  half-life: 4.2
- structure smiles: "O=C(c1ccc(Cl)c(Cl)c1)n1cccn1"
  unit abbreviation: "h"
  half-life: 1.1
- structure smiles: "Cc1nn(C(=O)c2ccc(Cl)cc2Cl)c(C)c1Cl"
  unit abbreviation: "h"
  half-life: 7.2
- structure smiles: "Cc1nn(C(=O)c2ccc(Cl)cc2)c(C)c1Cl"
  unit abbreviation: "h"
  half-life: 2.6
- structure smiles: "Cc1cc(C)n(C(=O)c2ccc(Cl)c(Cl)c2)n1"
  unit abbreviation: "h"
  half-life: 10
- structure smiles: "Cc1nn(C(=O)c2ccc(Cl)cc2)c(C)c1Br"
  unit abbreviation: "h"
  half-life: 2.1
- structure smiles: "Cc1nn(C(=O)c2ccc(Cl)c([N+](=O)[O-])c2)c(C)c1Cl"
  unit abbreviation: "h"
  half-life: 2.2
- structure smiles: "Cc1cc(C)n(C(=O)c2ccc(Cl)c([N+](=O)[O-])c2)n1"
  unit abbreviation: "h"
  half-life: 5.6
- structure smiles: "Cc1cccc(C(=O)n2cc(Br)cn2)c1"
  unit abbreviation: "h"
  half-life: 5.1
- structure smiles: "O=C(c1ccc(F)cc1)n1cc(Cl)cn1"
  unit abbreviation: "h"
  half-life: 1.6
- structure smiles: "Cc1ccccc1C(=O)n1cc([N+](=O)[O-])cn1"
  unit abbreviation: "h"
  half-life: 0.55
- structure smiles: "COc1cc(C(=O)n2ccc(C)n2)cc(OC)c1OC"
  unit abbreviation: "h"
  half-life: 4.2
- structure smiles: "O=C(c1cc(F)ccc1Cl)n1cccn1"
  unit abbreviation: "h"
  half-life: 2.5
- structure smiles: "O=C(Nc1ccccc1)c1ccn(C(=O)c2ccccc2)n1"
  unit abbreviation: "h"
  half-life: 0.51
- structure smiles: "O=C(c1cc(F)c(F)cc1Cl)n1cc(Br)cn1"
  unit abbreviation: "h"
  half-life: 0.73
- structure smiles: "Cc1cc([N+](=O)[O-])nn1C(=O)c1ccccc1F"
  unit abbreviation: "h"
  half-life: 0.16
- structure smiles: "Cc1nn(C(=O)c2ccccc2F)c(C)c1Cl"
  unit abbreviation: "h"
  half-life: 5.3
- structure smiles: "O=C(c1c(F)cccc1F)n1cc(Br)cn1"
  unit abbreviation: "h"
  half-life: 3.1
- structure smiles: "O=C(c1ccccc1Cl)n1cccn1"
  unit abbreviation: "h"
  half-life: 1.1
- structure smiles: "Cc1nn(C(=O)c2ccccc2Br)c(C)c1Cl"
  unit abbreviation: "h"
  half-life: 12.5
- structure smiles: "COC(=O)c1ccnn1C(=O)c1ccc(Cl)cc1"
  unit abbreviation: "h"
  half-life: 0.29
